System: normal NK cells expanded with K562-aAPC
TEST_SUMMARY: percent inhibition of viability; higher = more inhibition
CONDITION_INFO: 72 h; IL-2 2.5 ng/mL; 0.1 nM
REPORTED_ENDPOINT: percent inhibition of viability (%)
One number for each entry, in %.

The following compounds have reported results that may help.
>>> experimental_result("Oc1ccc2c(c1)CC[C@H](c1ccccc1)[C@@H]2c1ccc(OCCN2CCCC2)cc1 [Lasofoxifene] (max concentration tested 1000 nM)")
-6.28
>>> experimental_result("COc1cccc2c1C(=O)c1c(O)c3c(c(O)c1C2=O)C[C@@](O)(C(=O)CO)C[C@@H]3O[C@H]1C[C@H](N)[C@H](O)[C@H](C)O1 [Doxorubicin] (max concentration tested 1000 nM)")
-3.12
>>> experimental_result("CCn1cc(-c2ccnc3[nH]c(-c4cccc(CN(C)C)c4)cc23)c(-c2ccc(NC(=O)N(C)C)cc2)n1 (max concentration tested 1000 nM)")
-5.72

Proceed to the following item.
Note to self: percent inhibition of viability recorded for CC(=O)O[C@@]12CO[C@@H]1C[C@H](O)[C@@]1(C)C(=O)[C@H](O)C3=C(C)[C@@H](OC(=O)[C@H](O)[C@@H](NC(=O)OC(C)(C)C)c4ccccc4)C[C@@](O)([C@@H](OC(=O)c4ccccc4)[C@H]21)C3(C)C [Docetaxel] (max concentration tested 1000 nM) was 1.57
